These entries and their values trace back to ChEMBL document CHEMBL5303573.

assay: The drug is tested on Bacteroides dorei strain: DSM17855 for biotransformation. The drug concentrations were measured before and after a 12-h incubation by liquid-chromatography-coupled mass spectrometry (LC–MS); conditions: phocaeicola dorei, 2 µM
Non-standard residues stand in square brackets, D forms with d. Residues, ends and D or L forms follow the SMILES beside them. pGlu = O=C1CC[C@@H](C(=O)O)N1; Thz = O=C(O)[C@@H]1CSCN1

- Compound: "O=C1CC[C@@H](C(=O)N2CSC[C@H]2C(=O)O)N1 [PIDOTIMOD] ([pGlu]-[Thz]-OH)"
  Bacterial Biotransformation: "Compound metabolized"
- Compound: "C[C@@H](CO)NC(=O)[C@@H]1C=C2c3cccc4[nH]cc(c34)C[C@H]2N(C)C1.O=C(O)/C=C\\C(=O)O [ERGONOVINE MALEATE]"
  Bacterial Biotransformation: "Compound metabolized"
- Compound: "CCOc1ccc2nc(S(N)(=O)=O)sc2c1 [ETHOXZOLAMIDE]"
  Bacterial Biotransformation: "Compound NOT metabolized"
- Compound: "COc1ccc2c3c1O[C@H]1C[C@@H](O)C=C[C@@]31CCN(C)C2 [GALANTAMINE]"
  Bacterial Biotransformation: "Compound NOT metabolized"

* * *

assay: The drug is tested on Clostridium sp. strain: fecal isolate for biotransformation. The drug concentrations were measured before and after a 12-h incubation by liquid-chromatography-coupled mass spectrometry (LC–MS); settings: 2 µM
Non-standard residues stand in square brackets, D forms with d. Residues, ends and D or L forms follow the SMILES beside them. pGlu = O=C1CC[C@@H](C(=O)O)N1; Thz = O=C(O)[C@@H]1CSCN1
Quantity Name: Bacterial Biotransformation

- Compound: "COc1cc(C(=O)NCc2ccc(OCCN(C)C)cc2)cc(OC)c1OC [TRIMETHOBENZAMIDE]"
  Bacterial Biotransformation: "Compound NOT metabolized"
- Compound: "COc1ccc(Cc2nccc3cc(OC)c(OC)cc23)cc1OC [PAPAVERINE]"
  Bacterial Biotransformation: "Compound NOT metabolized"
- Compound: "O=C1CC[C@@H](C(=O)N2CSC[C@H]2C(=O)O)N1 [PIDOTIMOD] ([pGlu]-[Thz]-OH)"
  Bacterial Biotransformation: "Compound metabolized"
- Compound: "C[N+]12CCC(CC1)C(OC(=O)C(O)(c1ccccc1)c1ccccc1)C2.[Br-] (configuration not stated) [CLIDINIUM BROMIDE]"
  Bacterial Biotransformation: "Compound NOT metabolized"
- Compound: "O=C1NCC2(CCN(CCc3ccccc3)CC2)O1 [FENSPIRIDE]"
  Bacterial Biotransformation: "Compound NOT metabolized"

Reported Bacterial Biotransformation for C#C[C@]1(OC(C)=O)CC[C@H]2[C@@H]3CCC4=C/C(=N/O)CC[C@@H]4[C@H]3CC[C@@]21CC [NORGESTIMATE] : what is it?
Compound metabolized

Reported Bacterial Biotransformation for COc1ccccc1N1CCN(CC(O)COc2cccc3ccccc23)CC1 (configuration not stated) [NAFTOPIDIL] : what is it?
Compound NOT metabolized

Reported Bacterial Biotransformation for CN(C)C(=O)Oc1cccc([N+](C)(C)C)c1.[Br-] [NEOSTIGMINE BROMIDE] : what is it?
Compound NOT metabolized

Reported Bacterial Biotransformation for O=C(NC(Cc1cc(=O)[nH]c2ccccc12)C(=O)O)c1ccc(Cl)cc1 (configuration not stated) [REBAMIPIDE] : what is it?
Compound NOT metabolized

Reported Bacterial Biotransformation for COc1ccc2[nH]c([S+]([O-])Cc3ncc(C)c(OC)c3C)nc2c1 (configuration not stated) [OMEPRAZOLE] : what is it?
Compound metabolized

Reported Bacterial Biotransformation for COC(=O)[C@H]1[C@H]2C[C@@H]3c4[nH]c5cc(OC)ccc5c4CCN3C[C@H]2C[C@@H](OC(=O)c2cc(OC)c(OC)c(OC)c2)[C@@H]1OC [RESERPINE] : what is it?
Compound NOT metabolized

Reported Bacterial Biotransformation for Cc1nc(-c2ccc(OCC(C)C)c(C#N)c2)sc1C(=O)O [FEBUXOSTAT] : what is it?
Compound NOT metabolized

Reported Bacterial Biotransformation for C[C@@H](c1ncncc1F)[C@](O)(Cn1cncn1)c1ccc(F)cc1F [VORICONAZOLE] : what is it?
Compound NOT metabolized

Reported Bacterial Biotransformation for CN(C)CCC=C1c2ccccc2C=Cc2ccccc21 [CYCLOBENZAPRINE] : what is it?
Compound metabolized

Reported Bacterial Biotransformation for Nc1nnc(-c2cccc(Cl)c2Cl)c(N)n1 [LAMOTRIGINE] : what is it?
Compound NOT metabolized

Reported Bacterial Biotransformation for COC(=O)[C@H](c1ccccc1Cl)N1CCc2sccc2C1.O=S(=O)(O)O [CLOPIDOGREL BISULFATE] : what is it?
Compound metabolized

Reported Bacterial Biotransformation for Br.CN(C)CCCC1(c2ccc(F)cc2)OCc2cc(C#N)ccc21 (configuration not stated) [CITALOPRAM HYDROBROMIDE] : what is it?
Compound NOT metabolized

* * *

assay: The drug is tested on Eubacterium hallii strain: DSM3353 for biotransformation. The drug concentrations were measured before and after a 12-h incubation by liquid-chromatography-coupled mass spectrometry (LC–MS); settings: anaerobutyricum hallii, 2 µM
Quantity Name: Bacterial Biotransformation

- Compound: "CC(C)(Oc1ccc(CCNC(=O)c2ccc(Cl)cc2)cc1)C(=O)O [BEZAFIBRATE]"
  Experimental Value: "Compound metabolized"
- Compound: "C=CCN1CC[C@]23c4c5ccc(O)c4O[C@H]2C(=O)CC[C@@]3(O)[C@H]1C5 [NALOXONE]"
  Experimental Value: "Compound NOT metabolized"
- Compound: "CN1C[C@H](C(=O)N[C@]2(C)O[C@@]3(O)[C@@H]4CCCN4C(=O)[C@H](Cc4ccccc4)N3C2=O)C=C2c3cccc4[nH]cc(c34)C[C@H]21.CN1C[C@H](C(=O)N[C@]2(C)O[C@@]3(O)[C@@H]4CCCN4C(=O)[C@H](Cc4ccccc4)N3C2=O)C=C2c3cccc4[nH]cc(c34)C[C@H]21.O=C(O)C(O)C(O)C(=O)O [ERGOTAMINE TARTRATE]"
  Experimental Value: "Compound metabolized"
- Compound: "CC(CCc1ccccc1)NCC(O)c1ccc(O)c(C(N)=O)c1 (stereo not drawn) [LABETALOL]"
  Experimental Value: "Compound NOT metabolized"
- Compound: "COC1=CC(=O)C[C@@H](C)[C@]12Oc1c(Cl)c(OC)cc(OC)c1C2=O [GRISEOFULVIN]"
  Experimental Value: "Compound NOT metabolized"
- Compound: "CCc1cccc2c3c([nH]c12)C(CC)(CC(=O)O)OCC3 (stereo not drawn) [ETODOLAC]"
  Experimental Value: "Compound NOT metabolized"
- Compound: "CCCc1nc2c(C)cc(-c3nc4ccccc4n3C)cc2n1Cc1ccc(-c2ccccc2C(=O)O)cc1"
  Experimental Value: "Compound NOT metabolized"

Reported Bacterial Biotransformation for CN1C(C(=O)Nc2ccccn2)=C(O)c2sccc2S1(=O)=O [TENOXICAM] : what is it?
Compound NOT metabolized

* * *

assay: The drug is tested on Blautia luti strain: DSM14534 for biotransformation. The drug concentrations were measured before and after a 12-h incubation by liquid-chromatography-coupled mass spectrometry (LC–MS); assay type: ADME; set-up: dose 2 uM, timepoint 0 vs 12 hours; settings: 2 µM
Quantity Name: Bacterial Biotransformation

- Compound: "CCCN1C[C@H](CSC)C[C@@H]2c3cccc4[nH]cc(c34)C[C@H]21.CS(=O)(=O)O [PERGOLIDE MESYLATE]"
  Bacterial Biotransformation: "Compound NOT metabolized"
- Compound: "OCCOCCN1CCN(C2=Nc3ccccc3Sc3ccccc32)CC1 [QUETIAPINE]"
  Bacterial Biotransformation: "Compound NOT metabolized"
- Compound: "CN(C)C(=O)Oc1cccc([N+](C)(C)C)c1.[Br-] [NEOSTIGMINE BROMIDE]"
  Bacterial Biotransformation: "Compound NOT metabolized"
- Compound: "CN1C(=O)CC(C)(c2ccccc2)C1=O (stereo not drawn) [METHSUXIMIDE]"
  Bacterial Biotransformation: "Compound NOT metabolized"
- Compound: "c1ccc([C@H]2CN3CCSC3=N2)cc1 [LEVAMISOLE]"
  Bacterial Biotransformation: "Compound NOT metabolized"

Reported Bacterial Biotransformation for CC(=O)Oc1ccc(C(c2ccc(OC(C)=O)cc2)c2ccccn2)cc1 [BISACODYL] : what is it?
Compound metabolized

Reported Bacterial Biotransformation for CNS(=O)(=O)Cc1ccc2[nH]cc(CCN(C)C)c2c1.O=C(O)CCC(=O)O [SUMATRIPTAN SUCCINATE] : what is it?
Compound NOT metabolized

Reported Bacterial Biotransformation for O=C(NCc1ccccc1)OCCO [BURAMATE] : what is it?
Compound NOT metabolized

Reported Bacterial Biotransformation for CC(C)(C)NCC(O)c1cc(Cl)c(N)c(Cl)c1 (stereo not drawn) [CLENBUTEROL] : what is it?
Compound NOT metabolized

Reported Bacterial Biotransformation for CSc1ccc2c(c1)C(N1CCN(C)CC1)Cc1ccccc1S2.O=C(O)/C=C\C(=O)O (stereo not drawn) : what is it?
Compound NOT metabolized

Reported Bacterial Biotransformation for CN1CCN(CC/C=C2/c3ccccc3Sc3ccc(S(=O)(=O)N(C)C)cc32)CC1 [THIOTHIXENE] : what is it?
Compound NOT metabolized
